In this section we review reported pEC50 values for a set of compounds.
system: SARS-CoV-2 (strain USA-WA1/2020); assay: microbe, parasite or virus in culture; format: cell-based; conditions: Severe acute respiratory syndrome coronavirus 2; HeLa-ACE2 cells; read-out: Antiviral CoV-2 EC50
Conceptually, pEC50 converts a concentration in mol/L into minus its log10.

In the examples that follow, each entry is paired with its recorded pEC50.
Incoming: Quick check: pEC50 of "COc1cccc2[nH]c(=O)cc(C(=O)N[C@@H]3CCN(c4c(C(=O)N5CCOCC5)cc(C#N)cc4C(F)(F)F)C3)c12" ?
Outgoing: 6.50

Incoming: Quick check: pEC50 of "CN1CCN(C(=O)c2cc(Cl)cc(C(F)(F)F)c2N2CC[C@@H](NC(=O)c3cc(=O)[nH]c4c(F)cccc34)C2)CC1" ?
Outgoing: 7.54

Incoming: Quick check: pEC50 of "N#Cc1cc(C(=O)N2CCOCC2)c(N2C[C@H](NC(=O)c3cc(=O)[nH]c4c(F)cc(F)cc34)CC2=O)c(C(F)(F)F)c1" ?
Outgoing: 6.76

Incoming: Quick check: pEC50 of "O=C(N[C@@H]1CCN(c2c(C(=O)N3CCOCC3)cc(Cl)cc2C(F)(F)F)C1)c1cc(=O)[nH]c2c(F)cccc12" ?
Outgoing: 8.04

Incoming: Quick check: pEC50 of "O=C(N[C@@H]1CCN(c2c(OC(F)(F)F)cc(Br)cc2C(=O)N2CCOCC2)C1)c1cc(=O)[nH]c2c(F)cccc12" ?
Outgoing: 8.09

More entries:
Incoming: Quick check: pEC50 of "COc1cccc2[nH]c(=O)cc(C(=O)N[C@H]3CN(c4c(C(=O)N5CCOCC5)cc(C)cc4C4CC4)C[C@@H]3OC)c12" ?
Outgoing: 7.45

Incoming: Quick check: pEC50 of "O=C(N[C@@H]1CCN(c2c(C(=O)N3CCOCC3)cc(Cl)cc2C(F)(F)F)C1)c1c(F)c(=O)[nH]c2c(F)cccc12" ?
Outgoing: 8.34

Incoming: Quick check: pEC50 of "Cc1cc(C(=O)N2CCOCC2)c(N2C[C@H](NC(=O)c3cc(=O)[nH]c4c(F)c(F)ccc34)CC2=O)c(C2CC2)c1" ?
Outgoing: 7.64

Incoming: Quick check: pEC50 of "O=C(N[C@@H]1CCN(c2c(C(=O)N3CCOCC3)cc(Br)cc2C(F)(F)F)C1)c1cc(C(F)F)[nH]c(=O)c1" ?
Outgoing: 6.38

Incoming: Quick check: pEC50 of "COc1cccc2[nH]c(=O)cc(C(=O)N[C@@H]3CCN(c4c(Cl)cc(C)cc4C(=O)N4CCOCC4)C3)c12" ?
Outgoing: 6.56

Incoming: Quick check: pEC50 of "COc1cccc2[nH]c(=O)cc(C(=O)N[C@@H]3CCN(c4c(C(=O)N5CCOCC5)cc(Cl)nc4C4CC4)C3)c12" ?
Outgoing: 6.62

Incoming: Quick check: pEC50 of "O=C(N[C@@H]1CCN(c2c(C(=O)N3CCOCC3)cc(Br)cc2C(F)(F)F)C1)c1cc(=O)[nH]c2c(F)c(F)ccc12" ?
Outgoing: 7.80

Incoming: Quick check: pEC50 of "O=C(N[C@@H]1CCN(c2c(C(=O)N3CCOCC3)cc(Br)cc2C(F)(F)F)C1)c1c(F)c(=O)[nH]c2c(F)cccc12" ?
Outgoing: 8.24
